- Test system: OVCAR-3
- procedure_summary: NCI one-dose SRB assay (Ovarian Cancer)
- Type: cell-based, human
- cond: OVCAR-3, 1.00E-5 Molar
measured_property: Growth Percent (%)
Provide the reading as a plain figure in %.

test_smiles	Growth Percent, %
COc1ccc(NC(=O)Nc2ccc(-c3ccc(OC)c(OC)c3)nc2C)cc1	102.08
COc1ccc(-c2ccc(NC(=O)Nc3ccc(Cl)c(C(F)(F)F)c3)c(C)n2)cc1	27.65

Please turn your attention to the following entry.
Given the entry `COc1ccc(-c2ccc(NC(=O)Nc3ccc(Cl)cc3)c(C)n2)cc1` , report its measured Growth Percent. 101.66

====

The following compounds are listed with their measured Growth Percent values.
- Test system: IGROV1
- procedure_summary: NCI one-dose SRB assay (Ovarian Cancer)
- Assay type: cell-based, human
- cond: IGROV1, 1.00E-5 Molar
Give your result in % as a bare value.

Which measured Growth Percent value corresponds to `COc1ccc(-c2ccc(NC(=O)Nc3cccc(Cl)c3)c(C)n2)cc1OC` ? 100.28

Same again, this time with `COc1ccc(-c2ccc(NC(=O)Nc3cccc(C(F)(F)F)c3)c(C)n2)cc1OC` 91.46

Cool, now `COc1cccc(NC(=O)Nc2ccc(-c3ccc(OC)c(OC)c3)nc2C)c1` 112.08

Source of measurements: paper PMC6100082
